system: MS2 coat protein; assay: apparent KD of MS2 coat protein, switch OFF state (with FMN for OFF switches, without FMN for ON switches); designed switch direction (-1 OFF switch, 1 ON switch): -1; higher = weaker reporter binding; conditions: FMN input: 0 or 200 uM; Eterna round: R93 (includes R88 designs)
PROPERTY_MEASURED: apparent KD of MS2 coat protein (nM)
Record the value in nM, omitting the unit from your answer.

Answered cases to consult:
- AAAUGUCUAGGAUAUACAUGAGGAUCACCCAUGUGUAAAAAUAAAUACACAAAAGAAAGUAGAAGGAGACAAAG [Mat - Exclusion 3 - Mayanna mod - D121]: 59.9
- AAAGUGUCAGGAUAUGCGAAGGCAUCUGACAGAUGAGGAUCGCAGAAGGGACAUGAGGAUCACCCAUGUAAAAA: 117
- CCCUAGUCAGGAUAUACAAACAUGUCAAAAGACGUGAAAAAACAUGAGGAUCACCCAUGUAGAAGGGACUAGGG [Mat - Exclusion 2 - JL mod - D19]: 15.2

QUERY: Find the measured apparent KD of MS2 coat protein of AAGAAGCGAGGAUAUACAAAAUAAAAGAAAAGAAAGAAAGAACAUGAGGAUCACCCAUGUAGAAGGCGUAAGAA [Sankhenre Sewadjtu] and report it.
RESULT: 11.1

QUERY: Find the measured apparent KD of MS2 coat protein of AAUAUCGGAGGAUAUGCAUAGAUAAAGAACCAUGUUAAAACACAUGAGGAUCACCCAUGUAGAAGGCCGAUAAA [AJ 9] and report it.
RESULT: 77.5

QUERY: Find the measured apparent KD of MS2 coat protein of GUGUACAGAGGAUAUACUGGAGCAUGGAAACAUGCAAGAUCACAUGAGGAUCACCCAUGUAGAAGGCUGUACAC [Ex2: 742] and report it.
RESULT: 21.8

QUERY: Find the measured apparent KD of MS2 coat protein of AAGAAGUCAGGAUAUACAUGAGGAUCACCCAUGUAAAAGAAAGAGGGAAAAGAGAAAAGUAGAAGGGACAAGAA [Arsinoe I] and report it.
RESULT: 32.1

QUERY: Find the measured apparent KD of MS2 coat protein of CAGUACUGAGGAUAUACAUGAGGAUCACCCAUGUGGGAAAGCUACGAAAGUAGCAAAUGUAGAAGGCAGUACUG [Ex3: 805] and report it.
RESULT: 98.7

QUERY: Find the measured apparent KD of MS2 coat protein of CUCUAGUAAGGAUAUCGAAGAAAAGAAAAGAAAGAAAAGAACGAGAAGGUACAUGAGGAUCACCCAUGUAAGAA [EteRNA is fun!] and report it.
RESULT: 19

QUERY: Find the measured apparent KD of MS2 coat protein of AACUGGGCAGGAUAUACAUGAGGAUCACCCAUGUAAAGAAAAGAAAGAUCCGAAGAAAGUAGAAGGGCCUGGAA [Variant 3 of Mod 1 of Ex3 sub 3, by Tesla's Dusciple Round 1] and report it.
RESULT: 126

QUERY: Find the measured apparent KD of MS2 coat protein of AAAAAGCGAGGAUAUACAUGAGGAUCACCCAUGUCAAAAAAAUAGAAAAAAAUAAAAAGUAGAAGGCGCAAAAA [Ex 3 #1] and report it.
RESULT: 63.6

---

Form field: apparent KD of MS2 coat protein (one value per entry).
test system: MS2 coat protein; experiment: apparent KD of MS2 coat protein; designed switch direction (-1 OFF switch, 1 ON switch): -1; higher = weaker reporter binding; conditions: input ligand: none
Record the value in nM, omitting the unit from your answer.

* GGUUUUUCUGAGGAUAUUGCAUCACCCGAUUUAUAAGAAGGCAGAACAUGAGGAUCACCCAUGUGGGUCUCUAG [Bingo-Bango-27] (Eterna round: R97, puzzle: Exclusion 6) | 15.7
* UUUGUUUAUGUAGGAUAUGCCUGGCGUGCCUUUGCAGAAGGACAUGAGGAUCACCCAUGUAACAUGAGGCUCACCCAUGUCGCA [salish99_ExNG1_r04_110] (Eterna round: R96, puzzle: Exclusion NG 1) | 645
* CCUCAGUCACAGGAUAUGCUCAUCUAAUGAUGAGCAGAAGGGUGAACAUGAGGAUCACCCAUGUUUACGAGGGU [Omei Ex6 E7] (Eterna round: R97, puzzle: Exclusion 6) | 555
* UGUUGUUCAGGAUAUGAUGUAUAAUACAUGAGGAUCACCCAUGUAGAUCCUGAUUUGGCGUCAGAAGGGAAUGUUG [salish99_ex5_r4_106] (Eterna round: R97, puzzle: Exclusion 5) | 33.2
* AAAUACCGGUGAGGAUAUUUAUAAUAGAGCUUUAUGAUAUACAUGAGGAUCACCCAUGUUACUUUAAAGAAGGCAUCGGAAUAA [Mat - Exclusion NG 2 - Mod of JL - D93] (Eterna round: R96, puzzle: Exclusion NG 2) | 18.9
* UUAUGUGCGAGAGGAUAUCGUGUACAAAGUACACGAGAAGGCUUCACAUGAGGAUCACCCAUGUACCGAGGUGAAACACCUUGA [Omei Exc(NG)1 Bv7] (Eterna round: R96, puzzle: Exclusion NG 1) | 887

QUERY: Find the measured apparent KD of MS2 coat protein of UAUUCGCGAGGAUAUGCAUUCGAGUCCAUUACGUGUCUGGGACUUGAGGAUCACCCAAGUAGAAGGCGUCUCAU [salish99_ex2_r4_643] (Eterna round: R97, puzzle: Exclusion 2) and report it.
RESULT: 145

QUERY: Find the measured apparent KD of MS2 coat protein of UUAUUGGUUGUGAGGAUAUCGGAUAGAUAGAUAUUCGAGAAGGCACAUGAGGAUCACCCAUGUGUGAUUAGAAA [JR_BMEx4_Sub048] (Eterna round: R97, puzzle: Brourd's mod of Exclusion 4) and report it.
RESULT: 25.9

QUERY: Find the measured apparent KD of MS2 coat protein of GCCGUACAAGGAUAUACAUGAGGAUCACCCAUGUGUCUCCUCGAGAGCAAACGGCUCUGUAGAAGGUGUCGUAA [EX3 C.20] (Eterna round: R97, puzzle: Exclusion 3) and report it.
RESULT: 15.6

QUERY: Find the measured apparent KD of MS2 coat protein of ACAAGCUUAAAGGUGAAUAACAUGAGGAUCACCCAUGUUCGUCUUAUAAAAAUAAAAAUAAAAAAUAAAAAAUAAAA [Sensor V2: 62] (Eterna round: R96, puzzle: Sensor v2, turn-off variant) and report it.
RESULT: 27.9

QUERY: Find the measured apparent KD of MS2 coat protein of GCUAUGGGAGGAUAUACAUGAGGAUCACCCAUGUGUAGAGCAUACGCGCGCAUUAACAGUAGAAGGCCCUGCGU [Eternabot (L1) Solution 23] (Eterna round: R97, puzzle: Exclusion 3) and report it.
RESULT: 49.4

---

test system: MS2 coat protein; experiment: apparent KD of MS2 coat protein; higher = weaker reporter binding; conditions: Eterna round: R107; input ligand: tryptophan 2.4 mM
PROPERTY_MEASURED: apparent KD of MS2 coat protein (nM)
Record the value in nM, omitting the unit from your answer.

QUERY: Find the measured apparent KD of MS2 coat protein of AUAUUAAUCGGAAGGAGCGGUACAUGAGGAUCACCCAUGUGCGAAGCCAGCAGAUCCCGUUACCAGGUAGGUCGCCGAGUUAUGA [Begebe] and report it.
RESULT: 30.7

QUERY: Find the measured apparent KD of MS2 coat protein of GUACAUGAGGAUCACCCAUGUGGUAGGGAUACCAGCCAGAAGAAAGGCCCUUGGCAGCUUGUAUUUAGUGUGGGUUUGUUUGUUC [Exclusion - Theophylline A] and report it.
RESULT: 25.6

QUERY: Find the measured apparent KD of MS2 coat protein of ACAUUUAACUGAAGGAGCGUGAAUAACAUGAGGAUCACCCAUGUAACUUAGAUUCUUAUAUCACAGGUAGGUCGCAGACUAAUGA [JR_ExcArginiB_Sub012] and report it.
RESULT: 19

QUERY: Find the measured apparent KD of MS2 coat protein of ACCGCAUCCGUAUAGGAUGCGGCCCAUGAAGGAGCGUGGGAAACCACAGGUAGGUCGCAUGACAUGAGGAUCACCCAUGUUUAUU [Matrix] and report it.
RESULT: 33.9

---

Form field: apparent KD of MS2 coat protein (one value per entry).
tested on: MS2 coat protein; test: apparent KD of MS2 coat protein; higher = weaker reporter binding; conditions: Eterna round: R107; input ligand: theophylline 2 mM
Record the value in nM, omitting the unit from your answer.

Answered cases to consult:
- GGUUGAUAUAUAUAUAUAUUGAUUACUGAAGGAGCGGGAAAUAACCCAGGUAGGUCGCAGAGAUCCACAUGAGGAUCACCCAUGU [!0.F]: 60.5
- ACACGGAAUGAUGGAUCACCUCGUUAAUAACGAGGACCGGUACGGCCGCCACUCGAAAACCGUGACCUGUACGAAAAGUGCAGGA [TrypAS 15 #SwitchBubble #HomemadeMS2 #StaticStrem #MS2Early]: 488
- CUAGAUGGAAACGUCUGGACGCACAAGCGACGAGGACCGGUACGGCCGCCACUCGAAGAGUGGUGGACAUGAGGAUCACCCAUGU [Design 4 MOD]: 78
- GUACCACAGUCGGCCGCCACUAAGUUGUAUUCCAGCAGGACGAAACAUGAGGAUCACCCAUGUCCUAGGACCGGGACUUCCGUCG [theeternabot_sameState_MS2_Trp_B_41]: 25.6
- ACAUUUAACUGAAGGAGCGUGAUAAACAUGAGGAUCACCCAUGUACCAAAGAUUUUCAGAUCACAGGUAGGUCGCAGACUAAUGA [JR_ExcArginiB_Sub015]: 12.6

QUERY: Find the measured apparent KD of MS2 coat protein of AGAUUCGACACGGCCGCCACUCGAGACGGAUUUCCGAGUGUCGAACAUGAGGAUCACCCAUGUCCGAGGACCGGGUGUUGAGUCU [XTryp B #10] and report it.
RESULT: 51.1

QUERY: Find the measured apparent KD of MS2 coat protein of UUGUUGUUUGGAAGGAGCGUGGAUGAGUGAGAACAUGAGGAUCACCCAUGUUGUAUGAUACCGCAGGUAGGUCGCCGGGUGGUGG [11.aB] and report it.
RESULT: 21.5

QUERY: Find the measured apparent KD of MS2 coat protein of GGUUGGUGUGGAGACAUAUUGAUUACUGAAGGAGCGGGAAUAAACCCAGGUAGGUCGCAGAGAUCCACAUGAGGAUCACCCAUGU [!0.P] and report it.
RESULT: 41.2

QUERY: Find the measured apparent KD of MS2 coat protein of AUGUCGUUGAAUAUAGCGGCUUGGAGUGAUACCAGAAUGAUCCAAUUCCCUUGGCAGCAUUACAUGAGGAUCACCCAUGUUCCAG [SSTheo A #23] and report it.
RESULT: 89.6
